- Measurement target: T1, MHC class I allele A*0201 monomer (human, biotinylated, bound to streptavidin-coated plate)
- T1 construct: also called A2; HLA-A2
- Experimental protocol: iTopia, multiparametric iScore
Reported property: iScore
Keep it simple and answer with nothing but the number.

Some binders with recorded iScore:
Binder: INADPRLTN [5T4 9-mer peptide 203]
Reported property: iScore
Recorded value: 0
//
Binder: DCHMADMVT [5T4 9-mer peptide 150]
Reported property: iScore
Recorded value: 0
//
Binder: HLESLHLED (also called HLESLHLED) [5T4 9-mer peptide 130]
Reported property: iScore
Recorded value: 0
//
Binder: LTHLESLHL [5T4 9-mer peptide 129]
Reported property: iScore
Recorded value: 0.143
//
Binder: TLAELQGLP [5T4 9-mer peptide 139]
Reported property: iScore
Recorded value: 0.083

Sure, the documented iScore for VFLGIVLAL (also called VFLGIVLAL) [5T4 9-mer peptide 179] is 0.606

Sure, the documented iScore for VCDCHMADM [5T4 9-mer peptide 149] is 0.061

Sure, the documented iScore for GKDRLTCAY [5T4 9-mer peptide 159] is 0
